Molecular target: T1, HTRA3, P83110
T1 sequence (P83110 354-453, limits assumed, looked up): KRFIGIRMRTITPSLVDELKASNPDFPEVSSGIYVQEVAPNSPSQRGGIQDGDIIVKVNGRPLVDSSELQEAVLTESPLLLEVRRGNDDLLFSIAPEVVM
Assay: holdup assay
Design: key: below the threshold = too weak to quantify, mostly under pKd 3.1 to 4
Conditions: plain residues with an end cap or a label only (N-terminal biotin on a linker: ahx)

binder	pKd
APSRKLNTEI [TIAM1, Q13009]	below the threshold
EKQAKGDTEF [CACYBP, Q9HB71]	below the threshold
QDEKVKESYV [ABCA1, O95477]	3.55
TESNLQTSSC [CGN, Q9P2M7]	below the threshold
